// reported pKi per item
ASSAY_SYSTEM: T1, caspase-1 (UniProt P29466 120-297; P29466 317-404, limits assumed)
T1 sequence (looked up) 1: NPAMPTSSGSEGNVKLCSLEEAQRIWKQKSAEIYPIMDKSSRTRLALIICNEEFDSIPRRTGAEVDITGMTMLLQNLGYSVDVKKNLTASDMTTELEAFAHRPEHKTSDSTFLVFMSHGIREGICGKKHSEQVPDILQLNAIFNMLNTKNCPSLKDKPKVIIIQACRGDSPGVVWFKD
T1 sequence (looked up) 2: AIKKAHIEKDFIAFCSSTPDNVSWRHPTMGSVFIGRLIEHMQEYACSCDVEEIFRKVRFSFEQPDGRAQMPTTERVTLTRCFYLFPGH
METHOD_NOTES: Ki printed in running text; no assay described
pKi: −log10 of the molar value.

- BINDER: "Ac-DEVD-aldehyde [Ac-DEVD-CHO, N-(N-Ac-Asp-Glu-Val)-3-amino-4-oxobutanoic acid]"
  pKi: 7.77
- BINDER: "Ac-YVAD-aldehyde [Ac-YVAD-CHO, N-(N-Ac-Tyr-Val-Ala)-3-amino-4-oxobutanoic acid]"
  pKi: 9.22

// data source = patent US6855515
